# Lookup of reported growth inhibition keyed by entry
- assay comment: NCI Yeast Anticancer Drug Screen. Data for the mec2-1 strain (AID 157)
- settings: S. cerevisiae mec2-1 strain, at 50.0 µM, hits give high values
The panel holds about 79,000 compounds, 15% with a hit somewhere; the sample as a whole holds those more often.
Write down the numeric answer in % and omit the unit.

Solved cases (2 shown):
compound: COC(=O)C1C2C=CC(CC2)C1C(=O)OC (stereo not drawn)
readout name: growth inhibition
reading: 5.65

compound: O=C(Nc1ccccc1-c1nn(CO)c(=S)n(CO)c1=O)C(F)(F)F
readout name: growth inhibition
reading: 23.9

Continue with the compound presented below.
What does the data say about its growth inhibition? Entry: O=C1NC(N2CCCC(CO)C2)=N/C1=C\c1ccccc1 (stereo not drawn)
-2.85

* * *

- assay comment: NCI Yeast Anticancer Drug Screen. Data for the sgs1 mgt1 strain (AID 161);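 further: 0% = growth of cultures given vehicle only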
- settings: S. cerevisiae sgs1 mgt1 strain, at 50.0 µM, hits give high values
The panel holds about 79,000 compounds, 15% with a hit somewhere; the sample as a whole holds those more often.
readout name: growth inhibition (%)
Please give a number only; it is taken to be in %.

compound: CCOC(OCC)C(=O)NC(C)c1ccc(O)c(OC)c1 (stereo not given)
reading: 0.2

Can you look up the measured growth inhibition of C[N+](C)(Cn1nc(Cl)c2ccc([N+](=O)[O-])cc21)Cn1nc(Cl)c2ccc([N+](=O)[O-])cc21 for me?
18.8

Form field: reported growth inhibition of CC1CCN(C(=O)Nc2ccccc2)CC1
4.9

// lookup growth inhibition for CC(=O)OC1OC(COC(=O)c2ccccc2)C(OC(=O)c2ccccc2)C1OC(=O)c1ccccc1 (stereo not given)
-13.2

So what's the measured growth inhibition for this one? O=C(O)CC(CSCP(=O)(O)O)C(=O)O (stereo not given)
3.05

Reported growth inhibition, compound O=C(O)C1=CC(c2ccccc2O)=NCCN1 : ____
0.7

# get_value(readout='growth inhibition', item= Cc1cc(N2CCCCC2)nc2ccccc12 )
-18.6

* * *

- assay comment: NCI Yeast Anticancer Drug Screen. Data for the cln2 rad14 strain (AID 165);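 further: 0% = growth equal to vehicle treated cultures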
- settings: S. cerevisiae cln2 rad14 strain, at 50.0 µM, hits give high values
The panel holds about 79,000 compounds, 15% with a hit somewhere; the sample as a whole holds those more often.
readout name: growth inhibition (%)
I only need the number, in %, no unit after it.

Solved entries:
compound: C1C2CC3CC1CC(c1nn4c(C56CC7CC(CC(C7)C5)C6)nnc4s1)(C2)C3
u: %
growth inhibition: 11.2
//
compound: O=C1/C(=C/c2ccc(Cl)cc2)CCC1CNc1ccc(Cl)cc1 (stereo not drawn)
u: %
growth inhibition: -2.8
//
compound: C=CC1(c2ccc3ccccc3c2)OCC(CC)(CC)CO1
u: %
growth inhibition: -4.7

Given the entry CCCC=NCCCC , report its measured growth inhibition.
-67

Quick one: growth inhibition for CCCCCCCCCCC(C(=O)O)C1(C(=O)O)CCC(=O)O1 (stereo not drawn) ?
11.4

// query growth inhibition value for entry O=c1[nH]cnc2c1nnn2CCCCCCCCCCCCn1nnc2c(=O)[nH]cnc21
-4.2

Which value of growth inhibition has been reported for CCC(SC)C(=O)c1ccccc1 (stereo not drawn) in the records?
-12.4

May I ask what growth inhibition has been recorded for Nc1nnc(Sc2n[nH]c(=O)[nH]c2=O)s1 ?
-0.2

I would be grateful if you could share the reported growth inhibition for O=[N+]([O-])c1cnc(/C=[N+](\[O-])C2CCCCC2)n1CCO .
13.7

Data request, read-out growth inhibition, for O=C(Nc1cccnc1)c1ccc([N+](=O)[O-])s1
9.25

Give the measured growth inhibition of O=C(Nc1cc(-c2ccccc2)[nH]n1)c1ccccc1Cl .
31.2

Requested read-out: growth inhibition. Entry: [NH-]c1ncnc2c1N=C[N+]2=CC=CCO
-7.6

Need growth inhibition, item ClC1=Cc2cccc3cccc1c23
2.5

I am curious: what growth inhibition value has been reported for O=C1N(c2ccccc2)C2(O)C(=O)c3ccccc3C2(O)N1c1ccccc1 (stereo not drawn) ?
16.5

# query: growth inhibition of entry O=C(C[n+]1csc2ccccc21)c1ccc(I)cc1
-12.8

Entry CN1C(=O)C(=O)n2c(cc3ccccc32)C1=O has what growth inhibition?
6.2

Dear colleague, I am looking for the recorded growth inhibition of the following compound: O=[N+]([O-])c1ccc(SN2CCCCC2CC2CCCCC2)c([N+](=O)[O-])c1 (stereo not drawn)
-2.25

Need growth inhibition of COc1ccc(NC(=O)CCC2=CC(=O)CC(c3ccccc3)O2)cc1 (stereo not drawn) , thanks.
25.3

* * *

- assay comment: NCI Yeast Anticancer Drug Screen. Data for the mlh1 rad18 strain (AID 175)
- settings: S. cerevisiae mlh1 rad18 strain growth inhibition; at 50.0 µM; hits give high values
- Method: Growth inhibition of yeast strains with defined genetic alterations is measured as a screen for potential anti-cancer activity. Selected strains with alterations in DNA damage repair or cell cycle control were exposed to compounds and growth inhibition was measured relative to vehicle treated controls. The strain used in this assay is mlh1 rad18
About 79,000 compounds went through this panel and 15% of them were active in at least one assay; those are over-represented in the sample as a whole. Active and inactive are the calls of the source. Rule as the data show it: active = growth inhibition above about 70%; inactive = the rest.
readout name: growth inhibition

Known results for compounds:
compound: CCc1cccc(CC)c1NC(=O)Nc1cc(Cl)ccc1C
reading: 7.9% (inactive)
//
compound: COC(=O)C=Cc1ccc2nncnc2c1 (mixture of isomers)
reading: -7.7% (inactive)
//
compound: CCCCCOc1ccc(C(=O)OC)cc1
reading: -20% (inactive)
//
compound: CN(C)c1ccc2oc3ccccc3c2c1
reading: -26.4% (inactive)

// next item, growth inhibition requested
Return reported growth inhibition; argument: O=S(=O)(N=N/C=C1\C=CC=CN1O)c1cccs1
-21.1% (inactive)

* * *

List of growth inhibition values.
- assay comment: NCI Yeast Anticancer Drug Screen. Data for the rad50 strain (AID 155);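 further: 0% = growth of vehicle-only cultures of the same strain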
- settings: S. cerevisiae rad50 strain growth inhibition; at 50.0 µM; hits give high values
This is part of a sample that, as a whole, favours compounds with a hit. Of some 79,000 tested, about 15% had one in any assay.
Please give a number only; it is taken to be in %.

molecule: COc1ccc2c(=O)c(O)c(-c3ccccc3)oc2c1
growth inhibition / %: 22.8
--
molecule: O=C(/C=C/c1ccccc1)c1ccc(Oc2ccccc2)cc1
growth inhibition / %: -13.2
--
molecule: O=C1C(n2ccc(=O)[nH]c2=O)CCN1CCCl (stereo not drawn)
growth inhibition / %: 0.2
--
molecule: COc1ccccc1OC(=O)Nc1ccc(S(=O)(=O)N(C)C)cc1
growth inhibition / %: 28.2

Item under review: Cc1ccc2cccnc2c1 . Reported growth inhibition?
21.9

Look up growth inhibition for this molecule: CN(C)CCNC(=O)c1cc([N+](=O)[O-])cn1C
10.9

Given the molecule CCOC(=O)[C@H]1CSC[C@@H](C(=O)OC)N1 , what is its reported growth inhibition?
-13.6

For the molecule COC(=O)C[C@](O)(CCCC(C)(C)O)C(=O)O[C@@H]1C(OC)=C[C@]23CCCN2CCc2cc4c(cc2[C@H]13)OCO4 , what growth inhibition is on record?
51.2

Tell me the measured growth inhibition of O=C1CSc2nc3ccc(Br)cc3c(=O)n21 , please.
16

Tell me the measured growth inhibition of COc1ccc(C(c2cc3c(cc2O)OCO3)N2CCCC2)cc1 (stereo not drawn) , please.
17

Record request: growth inhibition value, item CC(C)(C)c1ccnc(C(O)(C(F)(F)F)C(F)(F)F)c1
-3.4

Would you kindly share the measured growth inhibition for O=C(/C=C\c1ccc(/C=C\C(=O)c2ccccc2O)cc1)c1ccccc1O ?
8.5

Which growth inhibition reading was recorded for the molecule COC(=O)C1C(C)(C(=O)OC)N=NC1(c1ccccc1)c1ccccc1 (stereo not drawn) ?
7.85

Request the reported growth inhibition associated with COc1cc(C2[C@H]3C(=O)N(c4ccc(Cc5ccc(N6C(=O)[C@@H]7ON(c8ccccc8)C(c8cc(OC)c(OC)c(OC)c8)[C@@H]7C6=O)cc5)cc4)C(=O)[C@H]3ON2c2ccccc2)cc(OC)c1OC (stereo partly drawn)
-2.25

So what's the measured growth inhibition for this one? N#CC1(c2ccccc2)C(c2ccccc2)CC(O)(c2ccccc2)C(C(=O)c2ccccc2)C1c1ccccc1 (stereo not drawn)
19.9

May I ask what growth inhibition has been recorded for O=C(O)/C(=C(\CO)c1ccccc1)c1ccccc1 ?
7.15

Item under review: CCCCCCCCCCCCCCCCCC(=O)OCC(COC1OC(CS(=O)(=O)O)C(O)C(O)C1O)OC(=O)CCCCCCCCCCCCCCCCC (stereo not drawn) . Reported growth inhibition?
23.6

Return reported growth inhibition; argument: CC(C)(C)OC(=O)N[C@H]1CCN(C2CCCCC2)C1=O
-34.9

* * *

The compounds listed here are annotated with their growth inhibition.
- assay comment: NCI Yeast Anticancer Drug Screen. Data for the cln2 rad14 strain (AID 165);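 further: 0% = growth equal to vehicle treated cultures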
- settings: S. cerevisiae cln2 rad14 strain, at 50.0 µM, hits give high values
About 79,000 compounds went through this panel and 15% of them were active in at least one assay; those are over-represented in the sample as a whole.
Write the value in % as a bare number.

Field: example entries. Status: answers known.
compound: C[N+]1(C)CCOC(O)(c2ccccc2)C1 (stereo not given)
growth inhibition / %: -2.85

compound: Cc1c(CCCl)c(=O)n2c([nH]c3ccccc32)c1C#N
growth inhibition / %: 5.2

compound: Nc1ccc2cc(S(=O)(=O)O)cc(O)c2c1
growth inhibition / %: -85.8

compound: C/C(=N\NS(=O)(=O)c1ccc(N)cc1)c1ccc(C)cc1C
growth inhibition / %: -5.25

Return reported growth inhibition; argument: N#C/C(=N\NC(=O)c1ccncc1)c1ccc(Cl)cc1
-30.2

Suppose we examine the compound COC(=O)C1CN(c2ccccc2)CCC1=O (stereo not given) ; what growth inhibition value has been reported?
-35.7

Record request: growth inhibition value, item CC1CN=C(N(C(=O)Nc2ccc(Cl)c(Cl)c2)c2ccccc2)S1 (stereo not given)
23.8

So what does the record say about growth inhibition for COc1ccccc1Nc1nc(-c2ccc([N+](=O)[O-])o2)cs1 ?
92.8

// growth inhibition lookup, key: COc1ccc(C(c2cc3c(cc2O)OCO3)N2CCOCC2)c(OC)c1 (stereo not given)
-25.9

The measured values listed here are drawn from PubChem BioAssay (NCI).
